Test system: Endogenous Huntingtin Protein
protocol: Endogenous Huntingtin Protein Assay (Meso Scale Discovery ELISA-based electrochemiluminescence)
Assay type: cell-based
experimental.context: MSD plates coated with MW1 (expanded polyglutamine) or MAB2166 capture antibody; lysates
pIC50: −log10 of the molar value.
Hi there, I'd appreciate the recorded pIC50 for every entry that follows.

Check out these entries, answers already filled in.
[
  {
    "compound": "CC1(C)CC(n2nnc3cc(-c4cc(F)c(-c5cn[nH]c5)cc4O)nnc32)CC(C)(C)N1",
    "test.target": "Endogenous Huntingtin Protein",
    "pIC50": "≥ 7.00"
  },
  {
    "compound": "COc1ncnc(-c2ccc(-c3cc4nnn(C5CC(C)(C)NC(C)(C)C5)c4nn3)c(O)c2)n1",
    "test.target": "Endogenous Huntingtin Protein",
    "pIC50": "≥ 7.00"
  },
  {
    "compound": "CC1(C)CC(n2nnc3cc(-c4ccc(-c5cn[nH]c5)cc4O)nnc32)CCN1 (stereo not shown)",
    "test.target": "Endogenous Huntingtin Protein",
    "pIC50": "6.30 to 7.00"
  },
  {
    "compound": "CC1(C)C[C@H](n2nnc3cc(-c4ccc(-c5cn[nH]c5)cc4O)nnc32)[C@H](F)C(C)(C)N1",
    "test.target": "Endogenous Huntingtin Protein",
    "pIC50": "≥ 7.00"
  },
  {
    "compound": "CC1(C)CC(n2nnc3cc(-c4ccc(-c5cn[nH]c5)c(F)c4O)nnc32)CC(C)(C)N1",
    "test.target": "Endogenous Huntingtin Protein",
    "pIC50": "≥ 7.00"
  }
]

For the 4 compounds below, give their pIC50 values.
1. CC1(C)C[C@H](n2nnc3cc(-c4ccc(-c5c[nH]nc5F)cc4O)nnc32)[C@H](F)C(C)(C)N1
2. CCCn1cc(-c2ccc(-c3cc4nnn(C5CC(C)(C)NC(C)(C)C5)c4nn3)c(O)c2)cn1
3. Fc1c(-c2cn[nH]c2)ccc(-c2cc3c(nn2)N(C2CC4CCC(C2)N4)CC3)c1F (stereo not shown)
4. CC1(C)CC(c2c[nH]c3cc(-c4ccc(-c5cn[nH]c5)cc4O)nnc23)CC(C)(C)N1

1. ≥ 7.00
2. 5.52 to 6.00
3. 6.30 to 7.00
4. ≥ 7.00

Need pIC50 for each of these compounds.
1. CC1(C)CC(n2nnc3cc(-c4ccc(-c5ncc[nH]5)cc4O)nnc32)CC(C)(C)N1
2. CCn1cc(-c2ccc(-c3cc4nnn(C5CC(C)(C)NC(C)(C)C5)c4nn3)c(O)c2)cn1
3. CC1(C)CC(n2nnc3cc(-c4ccc(-c5ccn6ccnc6c5)cc4O)nnc32)CC(C)(C)N1
4. CC1(C)C=C(c2csc3cc(-c4ccc(-c5cn[nH]c5)cc4O)nnc23)CC(C)(C)N1
5. CNc1cc(-c2ccc(-c3cc4nnn(C5CC(C)(C)NC(C)(C)C5)c4nn3)c(O)c2)ccn1

5.52 to 6.00
6.00 to 6.30
6.30 to 7.00
≥ 7.00
≥ 7.00

For each of the compounds below, note its pIC50.
1. Cn1cnc2cc(-c3cc4nnn(C5CC(C)(C)NC(C)(C)C5)c4nn3)c(O)cc21
2. CN1C(C)(C)CC(n2nnc3cc(-c4ccc(-c5cn[nH]c5)cc4O)nnc32)CC1(C)C

5.52 to 6.00
6.00 to 6.30
